System: Coxsackievirus B1
Method Description: Antiviral activity against Coxsackievirus B1 infected in human HeLa cells by agar diffusion assay
Assay type: functional
Assign PDD50 to each entry below.

Task: Answer with the recorded PDD50 for the molecule listed here: CNC1=NC(=O)[C@H]([C@H](C)c2c[nH]c3ccccc23)S1 (racemic)
Result: 5 µg/mL

Task: Return PDD50 for the following molecule: C[C@H](c1c[nH]c2ccccc12)[C@@H]1SC(NCCO)=NC1=O (racemic)
Result: 16 µg/mL

Task: Specify PDD50 for NC(=O)c1ncn([C@@H]2O[C@H](CO)[C@@H](O)[C@H]2O)n1 and stop.
Result: >100 µg/mL

Task: Tell me measured PDD50 for C/N=C1/S[C@@H]([C@H](C)c2c[nH]c3ccccc23)C(=O)N1C (racemic) please.
Result: 3 µg/mL

Task: Read the entry OC(c1ccccc1)c1nc2ccccc2[nH]1 (configuration not stated) and write its reported PDD50.
Result: 20 µg/mL

Task: Answer with the recorded PDD50 for the molecule listed here: CNC1=NC(=O)C(Cc2c[nH]c3ccccc23)S1 (racemic)
Result: 100 µg/mL

Task: Return PDD50 (reported value) for this molecule: CCNC1=NC(=O)[C@H]([C@H](C)c2c[nH]c3ccccc23)S1 (racemic)
Result: 10 µg/mL
